- System: HIV-1 RRE IIB RNA
- Assay Name: Dot blot assay, dissociation constant with wild-type RRE IIB RNA
- Assay type: binding
- Experimental Setup: RRE IIB
Assay Metric: loss of binding affinity compared to BPBA1

{"Substance": "WKKGKBBAYWY [LPBA1]", "Result": "> 50 fold"}
{"Substance": "Ac(WKK)*KBBAYWY [LPBA3]", "Result": "> 50 fold"}
{"Substance": "WKKWKKGKBBAYWY [LPBA4]", "Result": "at least 5 fold"}
{"Substance": "WKKGKBBAYWYWKK [LPBA5]", "Result": "at least 5 fold"}

====

- Target Under Test: loop B/bulge A deleted RNA
- Assay Name: Dot blot assay with RRE IIB variant loop B/bulge A deleted RNA
- Assay type: binding, HIV-1
Assay Metric: Kd (µM)
Numbers only, in µM.

Kd for (WKK)2*KBBAYWY [BPBA1] ?
8.7
